Molecular target: Fluorescein-labeled variant of BtuF (BtuF_(fluo)) (Escherichia coli) (UniProt P37028)
Assay: other fluorescence titration; equilibrium competition in solution: 5 nM BtuF_(fluo), Cbl 0.3 nM to 10 μM at a constant nanobody concentration (5 μM Nb14; 1 μM Nb7, Nb15, Nb17; 100 nM Nb9, Nb10); 50 mM Tris-HCl pH 7.5, 200 mM NaCl, 0.001% Tween 20, 23 °C; Ki fitted with Dynafit with Kd of Cbl 8.1 nM as input
Answer each item with its documented Ki.
Please state the value followed by its unit.

I would be grateful if you could share the reported Ki for Nanobody Nb15 (VHH, Alpaca nanobody selected by phage display against BtuF; source: E. coli WK6, periplasmic extract, purified (IMAC, PD10 desalting)) VHH: QVQLVESGGGLVQPGGSLRLSCTASEATLDDYAIGWFRQAPGKEREGVSCIGSSGDVTHYADSVKGRFTISRDNAKNTGYLQLNNLRPEDTAVYYCAAAHRILGGCLVIHSSDYTSSSKGTRVTVSS .
79 nM

Field request: Ki | item: Nanobody Nb10 (VHH) VHH: QLQLVESGGGLVQPGGSLRLSCAASGFTLDYYAIGWFRQAPGKEREGVSCISSSGGSTNYADSVKGRFTISRDNAKNTVYLQMNSLKPEDTAVYYCAADYAGRGFCAGLYDYWSQGTPVTVSS
6 nM

# lookup: Ki of Nanobody Nb17 (VHH, Alpaca nanobody selected by phage display against BtuF; source: E. coli WK6, periplasmic extract, purified (IMAC, PD10 desalting)) VHH: QRQLVESGGGLVQAGGSLRLSCAASGRTFSSYVMGWFRQAPGKEREAVASISWSGGSTYYADSVKGRFTISRDNAKNTVYLQMNSLKPEDTAVYYCAADHRTYYTGTYSPDYWGKGTPVTVSS
54 nM

Form field: reported Ki of Nanobody Nb7 (VHH, Alpaca nanobody selected by phage display against BtuF; source: E. coli WK6, periplasmic extract, purified (IMAC, PD10 desalting)) VHH: QGQLVESGGGLVQPGGSLRLSCVASGFDFSNYTMSWVRQAPGKGLEWVSDISSGGGSTYYADSVKGRFTISRDNAKNTVYLQMNTLKPEDTAVYLCTELGVAPPGQGTRVTVSS
24 nM

Please look up its Ki: Nanobody Nb14 (VHH) VHH: QLQLVESGGGLVQPGGSLRLSCAASGFTFSSVAMSWVRQAPGKGLEWVSDINSVGSTYYADSVKGRFTISRDNAKNTVYLQMNSLKPEDTAVYYCVPLGERPEIHGGKGTPVTVSS
770 nM
